assay: Therapeutic index, ratio of CC50 for human MT4 cells to EC50 for HIV1 3B; assay type: cell-based
outcomeMeasure: selectivity ratio

# molecule `c1ccc(CNCc2ccc(CN3CCCNCCNCCCNCC3)cc2)nc1` ; its selectivity ratio = > 12000
